Assay: NCI Yeast Anticancer Drug Screen. Data for the cln2 rad14 strain (AID 165);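 further: 0% = growth equal to vehicle treated cultures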
Conditions: S. cerevisiae cln2 rad14 strain, at 50.0 µM, active compounds read high
Procedure: Growth inhibition of yeast strains with defined genetic alterations is measured as a screen for potential anti-cancer activity. Selected strains with alterations in DNA damage repair or cell cycle control were exposed to compounds and growth inhibition was measured relative to vehicle treated controls. The strain used in this assay is cln2 rad14
The panel holds about 79,000 compounds, 15% with a hit somewhere; the sample as a whole holds those more often.
Categorize each record by its growth inhibition using zone 1 (below 30%), zone 2 (30% to below 70%), zone 3 (70% or more)

Query block: Any idea which band N#CC(O)C(Br)(Br)Br (stereo not drawn) is in?
Result block: zone 1

Query block: Any idea which band COc1ccccc1C1C(Cl)C(=O)N1n1cnc2ccccc2c1=O (stereo not drawn) is in?
Result block: zone 2

Query block: Any idea which band `CC(=O)OCc1ccc([N+](=O)[O-])o1` is in?
Result block: zone 3

Query block: Any idea which band `Cc1ccccc1N1C(=O)C(=O)c2cccc(C)c21` is in?
Result block: zone 3

Query block: Any idea which band `[Cl][Pt+2][Cl].[NH-]c1cc2ccccc2cc1[NH-]` is in?
Result block: zone 2

Query block: Any idea which band O/N=C1/C(=C/c2ccc(Cl)c(Cl)c2)CCCC1C(NO)c1ccc(Cl)c(Cl)c1 (stereo not drawn) is in?
Result block: zone 1

Query block: Any idea which band `Cc1c2cnccc2c(C)c2c1c1ccccc1n2Cc1ccccc1` is in?
Result block: zone 1

Query block: Any idea which band `N#Cc1c(-c2ccc(Cl)c(Cl)c2)c(-c2ccc(Cl)c(Cl)c2)nn(CC(=O)O)c1=O` is in?
Result block: zone 1

Query block: Any idea which band O=C1CCCC1CN1CCOCC1 (stereo not drawn) is in?
Result block: zone 2

Query block: Any idea which band `COC(=O)c1cc(=O)n(-c2ccccc2C(F)(F)F)c(SC)n1` is in?
Result block: zone 3

Query block: Any idea which band c1ccc(CC(Nc2cccnc2)c2ccccc2)cc1 (stereo not drawn) is in?
Result block: zone 1

Query block: Any idea which band `[O-]c1c2cc(-[n+]3c(-c4ccccc4)cc(-c4ccccc4)cc3-c3ccccc3)cc1CO[C@@H](c1ccccc1)[C@H](c1ccccc1)OCCOCCO[C@@H](c1ccccc1)[C@H](c1ccccc1)OC2` is in?
Result block: zone 3

Cited source: PubChem BioAssay (NCI)
